Could you please report measured Kd for the items listed next?
molecular target: recombinant human 6×His-tagged-BRM (bromodomain-only; aa. 1377-1486) (Homo sapiens, UniProt P51531); construct: (bromodomain-only; aa; 1377-1486; NP_620614); assay: AlphaLISA competitive BRM binding assay; details: 7 nM 6×His-BRM, 20 nM biotinylated probe

Would you please look over these solved cases?
CN1CCN(c2cc(N)nc3nc(-c4ccccc4O)cn23)CC1	≥ 10000 nM
CN1C2CCC1CN(c1cc(N)nc3nc(-c4ccccc4O)cn13)C2	≥ 10000 nM
CN1CCN(c2cnc3nc(-c4ccccc4O)cn3c2)CC1	500 to 2500 nM
Cn1cc(-c2cnc3nc(-c4ccccc4O)cn3c2)cn1	500 to 2500 nM
C#Cc1cc(N)nc2nc(-c3ccccc3O)cn12	2500 to 10000 nM
C#Cc1cnc2nc(-c3ccccc3O)cn2c1	≥ 10000 nM

Dear colleague, could you please provide Kd for the compounds listed below?
1. COC/C=C/c1cnc2nc(-c3ccccc3O)cn2c1
2. CN1CC2CCC(C1)N2c1cnc2nc(-c3ccccc3O)cn2c1
3. Oc1ccccc1-c1cn2cccnc2n1
4. Nc1ccn2cc(-c3ccccc3O)nc2n1

1. 2500 to 10000 nM
2. 2500 to 10000 nM
3. 500 to 2500 nM
4. < 500 nM

Dear colleague, could you please provide Kd for the compounds listed below?
1. Oc1ccccc1-c1cn2cc(C#Cc3ccncc3)cnc2n1
2. Nc1cc(C#Cc2ccncc2)n2cc(-c3ccccc3O)nc2n1
3. Nc1nc2nc(-c3ccccc3O)cn2cc1C#Cc1ccncc1
4. C#Cc1cn2cc(-c3ccccc3O)nc2nc1N

1: ≥ 10000 nM; 2: ≥ 10000 nM; 3: 2500 to 10000 nM; 4: < 500 nM

Dear colleague, could you please provide Kd for the compounds listed below?
1. COC/C=C/c1cn2cc(-c3ccccc3O)nc2nc1N
2. COCCOCC#Cc1cn2cc(-c3ccccc3O)nc2nc1N

1. < 500 nM
2. < 500 nM

* * *

Could you please report measured DC50 for the items listed next?
molecular target: BRM (Homo sapiens, UniProt P51531); construct: In-Cell Western Screen of BRM Degradation in SW1573 Cells; endogenous in cells; host or cells: SW1573 cells; experiment: Western blot / In-Cell Western screen of BRM degradation in SW1573 cells; type: cell-based; details: overnight (18-20 hours) treatment
Counter-ions that a name gives are not always drawn.

Cc1ncsc1-c1ccc([C@H](C)NC(=O)[C@@H]2C[C@@H](O)CN2C(=O)[C@@H](c2cc(N3CCC(CN4CCC(O[C@H]5C[C@@H](N6CCC(CC#Cc7cn8cc(-c9ccccc9O)nc8nc7N)CC6)C5)CC4)CC3)no2)C(C)C)cc1 [Compound 36, formate]	< 2.5 nM

Shift focus to the following entry.
I have this compound here, Cc1ncsc1-c1ccc([C@H](C)NC(=O)[C@@H]2C[C@@H](O)CN2C(=O)[C@@H](c2cc(N3CCC(CN4CCC5(CC4)CC(N4CCO[C@@H](CN6CCOC7(CCN(c8cc(-c9ccccc9O)nnc8N)CC7)C6)C4)C5)CC3)no2)C(C)C)cc1 , and I need its recorded DC50. < 2.5 nM

* * *

biological target: BRM (Homo sapiens); construct: In-Cell Western Screen of BRM Degradation in SW1573 Cells; endogenous in cells; host or cells: SW1573 cells; experiment: Western blot / In-Cell Western screen of BRM degradation in SW1573 cells; type: cell-based; conditions: overnight (18-20 hours) treatment
Could you please report measured DC50 for the items listed next?

Cc1ncsc1-c1ccc([C@H](C)NC(=O)[C@@H]2C[C@@H](O)CN2C(=O)[C@@H](c2cc(N3CCC(CN4CCC(O[C@H]5C[C@H](n6cc(CN7C8CCC7CN(c7cc(-c9ccccc9O)nnc7N)C8)cn6)C5)CC4)CC3)no2)C(C)C)cc1 [Compound 12]	2.5 to 10 nM
Cc1ncsc1-c1ccc([C@H](C)NC(=O)[C@@H]2C[C@@H](O)CN2C(=O)[C@H](c2cc(OCCN3CCN(CCOc4cc(N5CCN(c6cc(-c7ccccc7O)nnc6N)CC56COC6)ccn4)CC3)no2)C(C)C)cn1 [Compound 16]	≥ 30 nM
Cc1ncsc1-c1ccc([C@H](C)NC(=O)[C@@H]2C[C@@H](O)CN2C(=O)[C@@H](c2cc(N3CCC(CN4CCC(O[C@H]5C[C@H](n6cnc(CN7C8CCC7CN(c7cc(-c9ccccc9O)nnc7N)C8)c6)C5)CC4)CC3)no2)C(C)C)cc1 (relative stereo) [Compound 10]	< 2.5 nM
Cc1ncsc1-c1ccc([C@H](C)NC(=O)[C@@H]2C[C@@H](O)CN2C(=O)[C@@H](c2cc(N3CCC(CN4CCC(O[C@H]5C[C@H](N6CCC(CN7CC8(C7)CN(c7cc(-c9ccccc9O)nnc7N)CCO8)CC6)C5)CC4)CC3)no2)C(C)C)cc1 [Compound 11]	2.5 to 10 nM
CC(C)[C@@H](C(=O)N1C[C@H](O)C[C@H]1C(=O)N[C@@H](C)c1ccc(-c2c(F)cnn2C)cc1)c1cc(N2CCC(CN3CCC(O[C@H]4C[C@H](C#Cc5cn6cc(-c7ccccc7O)nc6nc5N)C4)CC3)CC2)no1 [Compound 39]	< 2.5 nM
Cc1ncsc1-c1ccc([C@H](C)NC(=O)[C@@H]2C[C@@H](O)CN2C(=O)[C@@H](c2cc(N3CCC(CN4CCC(O[C@H]5C[C@H](n6cnc(CN7C8CCC7CN(c7cc(-c9ccccc9O)nnc7N)C8)c6)C5)CC4)CC3)no2)C(C)C)cc1 [Compound 3]	< 2.5 nM
Cc1ncsc1-c1ccc([C@H](C)NC(=O)[C@@H]2C[C@@H](O)CN2C(=O)[C@@H](c2cc(N3CCC(CN4CCC(O[C@H]5C[C@H](OCC#Cc6cn7cc(-c8ccccc8O)nc7nc6N)C5)CC4)CC3)no2)C(C)C)cc1 [Compound 29]	< 2.5 nM
Cc1ncsc1-c1ccc([C@H](C)NC(=O)[C@@H]2C[C@@H](O)CN2C(=O)[C@@H](c2cc(N3CCC(CN4CCC(O[C@H]5C[C@H](Oc6cc(CCc7cc(-c8ccccc8O)nnc7N)ccn6)C5)CC4)CC3)no2)C(C)C)cc1 [Compound 1]	2.5 to 10 nM
Cc1ncsc1-c1ccc([C@H](C)NC(=O)[C@@H]2C[C@@H](O)CN2C(=O)[C@@H](c2cc(N3CCC(CN4CCC(O[C@H]5C[C@H](n6ccnc6CN6C7CCC6CN(c6cc(-c8ccccc8O)nnc6N)C7)C5)CC4)CC3)no2)C(C)C)cc1 [Compound 8]	< 2.5 nM
CC(C)[C@@H](C(=O)N1C[C@H](O)C[C@H]1C(=O)N[C@@H](C)c1ccc(-c2ccnn2C)cc1)c1cc(N2CCC(CN3CCC(O[C@H]4C[C@H](OC/C=C/c5cn6cc(-c7ccccc7O)nc6nc5N)C4)CC3)CC2)no1 [Compound 45]	< 2.5 nM

Dear colleague, could you please provide DC50 for the compounds listed below?
1. Cc1ncsc1-c1ccc([C@H](C)NC(=O)[C@@H]2C[C@@H](O)CN2C(=O)[C@H](c2cc(N3CCC(O[C@H]4C[C@H](OCC#Cc5cn6cc(-c7ccccc7O)nc6nc5N)C4)CC3)no2)C(C)C)cc1 [Compound 34]
2. Cc1ncsc1-c1ccc([C@H](C)NC(=O)[C@@H]2C[C@@H](O)CN2C(=O)[C@@H](c2cc(N3CCC(CN4CCC(O[C@H]5C[C@H](N6CCC(CN7CC8(C7)CN(c7cc(-c9ccccc9O)nnc7N)CCN8C)CC6)C5)CC4)CC3)no2)C(C)C)cc1 [Compound 27]
3. Cc1ncsc1-c1ccc([C@H](C)NC(=O)[C@@H]2C[C@@H](O)CN2C(=O)[C@@H](c2cc(N3CCC(CN4CCC(O[C@H]5C[C@H](N6CCC(CN7CCN(c8cc(-c9ccccc9O)nnc8N)CC78COC8)CC6)C5)CC4)CC3)no2)C(C)C)cc1 [Compound 13]
4. Cc1ncsc1-c1ccc([C@H](C)NC(=O)[C@@H]2C[C@@H](O)CN2C(=O)[C@@H](c2cc(N3CCC(CN4CCC(O[C@H]5C[C@H](Cn6cnc(-c7cn8cc(-c9ccccc9O)nc8nc7N)c6)C5)CC4)CC3)no2)C(C)C)cc1 [Compound 43]
5. Cc1ncsc1-c1ccc([C@H](C)NC(=O)[C@@H]2C[C@@H](O)CN2C(=O)[C@@H](c2cc(N3CCC(CN4CCC(O[C@H]5C[C@H](N6CCN(C[C@@H]7[C@H]8CN(c9cc(-c%10ccccc%10O)nnc9N)C[C@@H]78)CC6)C5)CC4)CC3)no2)C(C)C)cc1 [Compound 9]
6. CC(C)[C@@H](C(=O)N1C[C@H](O)C[C@H]1C(=O)N[C@@H](C)c1ccc(C#N)cc1)c1cc(OCCN2CCC(O[C@H]3C[C@@H](Oc4cc(N5CCN(c6cc(-c7ccccc7O)nnc6N)CC56COC6)ccn4)C3)CC2)no1 [Compound 24]
7. Cc1ncsc1-c1ccc([C@H](C)NC(=O)[C@@H]2C[C@@H](O)CN2C(=O)[C@@H](c2cc(N3CCC(CN4CCC(O[C@H]5C[C@H](Oc6cc(N7C[C@@H]8CN(c9cc(-c%10ccccc%10O)nnc9N)C[C@@H]8C7)ccn6)C5)CC4)CC3)no2)C(C)C)cc1 [Compound 7]

≥ 30 nM
2.5 to 10 nM
< 2.5 nM
2.5 to 10 nM
< 2.5 nM
< 2.5 nM
< 2.5 nM
